Parameter IC50: see the listing below.
- Assayed Target: dihydrolipoamide acyltransferase (DlaT) (Mycobacterium tuberculosis)
- Sequence (P9WIS7 1-553): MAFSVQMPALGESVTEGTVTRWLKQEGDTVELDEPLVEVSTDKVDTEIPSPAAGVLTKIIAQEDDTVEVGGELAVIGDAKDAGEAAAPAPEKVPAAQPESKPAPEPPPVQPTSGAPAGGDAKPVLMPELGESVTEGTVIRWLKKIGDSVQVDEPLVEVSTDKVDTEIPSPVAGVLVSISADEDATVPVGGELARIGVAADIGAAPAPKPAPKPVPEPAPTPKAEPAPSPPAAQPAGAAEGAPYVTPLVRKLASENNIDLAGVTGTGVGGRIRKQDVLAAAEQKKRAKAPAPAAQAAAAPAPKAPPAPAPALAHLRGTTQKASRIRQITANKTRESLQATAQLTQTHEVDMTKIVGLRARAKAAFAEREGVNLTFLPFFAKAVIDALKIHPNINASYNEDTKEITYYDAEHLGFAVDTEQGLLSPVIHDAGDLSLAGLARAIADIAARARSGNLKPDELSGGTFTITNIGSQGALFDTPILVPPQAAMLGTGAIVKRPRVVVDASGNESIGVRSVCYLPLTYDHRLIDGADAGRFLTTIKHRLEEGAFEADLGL
- Experiment Notes: DlaT inhibition (Dlat IC50); DTNB peroxidase assay with Lpd, DlaT and AhpD
- Format: biochemical
- Condition Notes: Table 1, Compounds A1 to A294; read-out: Dlat IC50 category

O=C(O)c1cccc(N2C(=O)C(=Cc3ccc(-c4cccc(C(F)(F)F)c4)o3)SC2=S)c1: < 10 µM
O=C(O)c1cc(N2C(=O)C(=Cc3ccc(-c4cccc(C(F)(F)F)c4)o3)SC2=S)ccc1O: < 10 µM
O=C(O)c1cccc(N2C(=O)C(=Cc3ccc(-c4ccccc4Cl)s3)SC2=S)c1: < 10 µM
CC(C)c1cccc(-c2ccc(C=C3SC(=S)N(c4cccc(OCC(=O)O)c4)C3=O)o2)c1: < 10 µM
CC(=O)c1ccc(-c2ccc(C=C3SC(=S)N(c4cccc(C(=O)O)c4)C3=O)o2)cc1: < 10 µM
O=C(O)c1cc(N2C(=O)C(=Cc3ccc(-c4ccccc4F)o3)SC2=S)ccc1F: 11 to 40 µM

[ask] Given the compound Cc1c(C(=O)O)cccc1N1C(=O)C(=Cc2ccc(-c3ccc(Cl)c(Cl)c3)o2)SC1=S , what is its reported IC50?
[reply] < 10 µM

[ask] Given the compound O=C(O)c1ccc(Cl)c(N2C(=O)C(=Cc3ccc(-c4ccc(Cl)cc4)o3)SC2=S)c1 , what is its reported IC50?
[reply] < 10 µM

[ask] Given the compound CC(=O)Nc1ccc(-c2ccc(C=C3SC(=S)N(c4cc(C(=O)O)cc(C(F)(F)F)c4)C3=O)o2)cc1 , what is its reported IC50?
[reply] < 10 µM

[ask] Given the compound Cc1ccc(C(=O)O)cc1N1C(=O)C(=Cc2ccc(-c3c(Cl)cccc3Cl)o2)SC1=S , what is its reported IC50?
[reply] < 10 µM

[ask] Given the compound O=C(O)c1cccc(N2C(=O)C(=Cc3ccc(-c4ccc(Cl)cc4)o3)SC2=S)c1 , what is its reported IC50?
[reply] < 10 µM

[ask] Given the compound Cc1ccc(-c2ccc(C=C3SC(=S)N(c4cc(C(=O)O)ccc4F)C3=O)o2)cc1 , what is its reported IC50?
[reply] < 10 µM

[ask] Given the compound CS(=O)(=O)c1ccc(-c2ccc(C=C3SC(=S)N(c4cc(C(=O)O)cc(C(F)(F)F)c4)C3=O)o2)cc1 , what is its reported IC50?
[reply] < 10 µM

[ask] Given the compound COc1cc(F)ccc1-c1ccc(C=C2SC(=S)N(c3cc(C(=O)O)ccc3F)C2=O)o1 , what is its reported IC50?
[reply] < 10 µM

[ask] Given the compound NC(=O)c1cccc(N2C(=O)C(=Cc3ccc(-c4ccccc4Cl)o3)SC2=S)c1 , what is its reported IC50?
[reply] 11 to 40 µM

[ask] Given the compound O=C(O)c1cc(N2C(=O)C(=Cc3ccc(-c4c(Cl)cccc4Cl)o3)SC2=S)ccc1O , what is its reported IC50?
[reply] 11 to 40 µM

[ask] Given the compound O=C(O)c1cccc(N2C(=O)C(=Cc3ccc(-c4ccc(C(F)(F)F)cc4)o3)SC2=S)c1 , what is its reported IC50?
[reply] < 10 µM

[ask] Given the compound O=C(O)c1cccc(N2C(=O)C(=Cc3ccc(-c4ccccc4Br)o3)SC2=S)c1 , what is its reported IC50?
[reply] 11 to 40 µM

###

- Assayed Target: dihydrolipoamide acyltransferase (DlaT) (Mycobacterium tuberculosis, UniProt P9WIS7)
- Experiment Notes: DlaT inhibition (Dlat IC50); DTNB peroxidase assay with Lpd, DlaT and AhpD
- Type: biochemical
- Condition Notes: read-out: Dlat IC50 category
Measurement Kind: IC50

[ask] Given the molecule O=C(O)c1cccc(CCN2C(=O)C(=Cc3ccc(-c4cc5ccccc5s4)o3)SC2=S)c1 , what is its reported IC50?
[reply] 11 to 40 µM

###

- Assayed Target: dihydrolipoamide acyltransferase (DlaT) (Mycobacterium tuberculosis, UniProt P9WIS7)
- Sequence (P9WIS7 1-553): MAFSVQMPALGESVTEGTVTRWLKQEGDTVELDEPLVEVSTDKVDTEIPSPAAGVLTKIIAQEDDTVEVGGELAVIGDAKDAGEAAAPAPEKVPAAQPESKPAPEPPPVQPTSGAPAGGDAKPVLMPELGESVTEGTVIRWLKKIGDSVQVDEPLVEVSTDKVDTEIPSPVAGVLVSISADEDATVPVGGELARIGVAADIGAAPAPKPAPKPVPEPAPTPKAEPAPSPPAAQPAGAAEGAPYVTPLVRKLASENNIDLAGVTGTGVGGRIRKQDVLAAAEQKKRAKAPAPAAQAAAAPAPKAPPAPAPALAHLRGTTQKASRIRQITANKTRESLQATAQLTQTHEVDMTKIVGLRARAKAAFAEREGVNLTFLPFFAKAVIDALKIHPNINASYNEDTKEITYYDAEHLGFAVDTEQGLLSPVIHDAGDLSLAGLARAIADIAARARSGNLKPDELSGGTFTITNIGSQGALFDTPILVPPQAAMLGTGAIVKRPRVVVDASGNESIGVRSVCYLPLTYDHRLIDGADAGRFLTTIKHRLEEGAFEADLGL
- Experiment Notes: DlaT inhibition (Dlat IC50); DTNB peroxidase assay with Lpd, DlaT and AhpD
- Assay type: biochemical
- Condition Notes: Table 1, Compounds A1 to A294; read-out: Dlat IC50 category
Measurement Kind: IC50

# annotated cases, reported IC50 shown
CSc1cccc(-c2ccc(C=C3SC(=S)N(c4cc(C(=O)O)ccc4F)C3=O)o2)c1: < 10 µM
Cc1ccc(-c2ccc(C=C3SC(=S)N(c4cccc(C(=O)O)c4)C3=O)o2)cc1: 11 to 40 µM
O=C(O)c1cccc(N2C(=O)C(=Cc3ccc(-c4cccc(Cl)c4)o3)SC2=S)c1: 11 to 40 µM
Cc1ccc(C(=O)O)cc1N1C(=O)C(=Cc2ccc(-c3ccccc3Cl)o2)SC1=S: < 10 µM

With those in mind, consider the next compound.
[ask] Given the compound CC(=O)NS(=O)(=O)c1cccc(N2C(=O)C(=Cc3ccc(-c4ccccc4Cl)o3)SC2=S)c1 , what is its reported IC50?
[reply] 11 to 40 µM

###

- Assayed Target: dihydrolipoamide acyltransferase (DlaT) (Mycobacterium tuberculosis, UniProt P9WIS7)
- Sequence (P9WIS7 1-553): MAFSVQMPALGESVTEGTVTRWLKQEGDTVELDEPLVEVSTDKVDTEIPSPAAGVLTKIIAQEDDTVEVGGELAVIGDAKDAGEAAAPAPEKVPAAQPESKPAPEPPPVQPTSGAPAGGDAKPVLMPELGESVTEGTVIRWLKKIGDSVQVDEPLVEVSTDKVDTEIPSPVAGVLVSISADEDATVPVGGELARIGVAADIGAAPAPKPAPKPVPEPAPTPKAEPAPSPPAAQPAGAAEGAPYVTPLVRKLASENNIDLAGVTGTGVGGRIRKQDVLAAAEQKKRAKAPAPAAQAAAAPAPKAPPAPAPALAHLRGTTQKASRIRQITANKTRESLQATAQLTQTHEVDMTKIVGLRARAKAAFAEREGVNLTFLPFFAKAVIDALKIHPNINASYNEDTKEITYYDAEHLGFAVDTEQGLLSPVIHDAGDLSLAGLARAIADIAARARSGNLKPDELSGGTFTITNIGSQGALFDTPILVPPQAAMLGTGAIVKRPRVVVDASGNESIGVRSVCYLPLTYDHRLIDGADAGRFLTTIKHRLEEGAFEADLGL
- Experiment Notes: DlaT inhibition (Dlat IC50); DTNB peroxidase assay with Lpd, DlaT and AhpD
- Assay type: biochemical
- Condition Notes: Table 1, Compounds A1 to A294; read-out: Dlat IC50 category
Parameter IC50: see the listing below.

# annotated cases, reported IC50 shown
Cc1ccc(-c2ccc(C=C3SC(=S)N(c4cccc(C(=O)O)c4)C3=O)o2)c(C)c1: 11 to 40 µM
COc1ccccc1-c1ccc(C=C2SC(=S)N(c3cccc(C(=O)O)c3)C2=O)o1: < 10 µM
O=C(O)c1cc(N2C(=O)C(=Cc3ccc(-c4ccc(Cl)cc4)o3)SC2=S)cc(C(F)(F)F)c1: 11 to 40 µM

[ask] Given the compound O=C(O)c1ccc(F)c(N2C(=O)C(=Cc3ccc(-c4ccccc4OCc4ccccc4)o3)SC2=S)c1 , what is its reported IC50?
[reply] < 10 µM

[ask] Given the compound CS(=O)(=O)c1ccc(-c2ccc(C=C3SC(=S)N(c4ccc(F)c(C(=O)O)c4)C3=O)o2)cc1 , what is its reported IC50?
[reply] < 10 µM

[ask] Given the compound Cc1ccc(-c2ccc(C=C3SC(=S)N(c4cc(C(=O)O)ccc4F)C3=O)o2)c(F)c1 , what is its reported IC50?
[reply] < 10 µM

[ask] Given the compound NC(=O)c1cccc(N2C(=O)C(=Cc3ccc(-c4cccc(C(F)(F)F)c4)o3)SC2=S)c1 , what is its reported IC50?
[reply] 11 to 40 µM

[ask] Given the compound O=C(O)c1cccc(N2C(=O)C(=Cc3ccc(-c4cc(Cl)ccc4Cl)o3)SC2=S)c1 , what is its reported IC50?
[reply] < 10 µM
